Data origin, for the record: patent US11890291B2

# test: in vivo
# particulars: Wistar, rat, po, 5 mg/kg
property measured: concentration at 8 h (ng/mL)
Kindly provide the numeric value in ng/mL only, without the unit symbol.

Requested read-out: concentration at 8 h. Entry: C=C1CC[C@H](O)C/C1=C/C=C1\CCC[C@]2(C)[C@@H]([C@H](C)CCCC(C)C)CC[C@@H]12
284

====

# test: in vivo
# particulars: Wistar, rat, po, 5 mg/kg
property measured: AUC(0-t)
The reply should consist of the numeric value with the unit placed after it.

Requested read-out: AUC(0-t). Entry: C=C1CC[C@H](O)C/C1=C/C=C1\CCC[C@]2(C)[C@@H]([C@H](C)CCCC(C)C)CC[C@@H]12
11700 ng·h/mL

====

# test: in vivo
# particulars: Wistar, rat, po, 5 mg/kg
property measured: concentration at 12 h (ng/mL)
Kindly provide the numeric value in ng/mL only, without the unit symbol.

Requested read-out: concentration at 12 h. Entry: C=C1CC[C@H](O)C/C1=C/C=C1\CCC[C@]2(C)[C@@H]([C@H](C)CCCC(C)C)CC[C@@H]12 [Standard vitamin D3, cholecalciferol]
767

====

# test: in vivo
# particulars: Wistar, rat, po, 5 mg/kg
property measured: concentration at 1 h (ng/mL)
Kindly provide the numeric value in ng/mL only, without the unit symbol.

Requested read-out: concentration at 1 h. Entry: C=C1CC[C@H](O)C/C1=C/C=C1\CCC[C@]2(C)[C@@H]([C@H](C)CCCC(C)C)CC[C@@H]12
3.7

====

# test: in vivo
# particulars: Wistar, rat, po, 5 mg/kg
property measured: concentration at 48 h (ng/mL)
Kindly provide the numeric value in ng/mL only, without the unit symbol.

Requested read-out: concentration at 48 h. Entry: C=C1CC[C@H](O)C/C1=C/C=C1\CCC[C@]2(C)[C@@H]([C@H](C)CCCC(C)C)CC[C@@H]12 [Standard vitamin D3, cholecalciferol]
744

====

# test: in vivo
# particulars: Wistar, rat, po, 5 mg/kg
# Procedure: Test substance (Vitamin D3 fortified aqueous composition) and standard drug cholecalciferol (Vitamin D3) was administered by oral route at the dose of 5 mg/kg body weight to Rats as shown in Table 8. […] The plasma was separated from blood samples for bioanalysis and pharmacokinetic profiling was performed using LC-MS/MS method for the quantification of vitamin D3 in Rat plasma. […]
property measured: AUC at 48 h (ng·h/mL)
Kindly provide the numeric value in ng·h/mL only, without the unit symbol.

Requested read-out: AUC at 48 h. Entry: C=C1CC[C@H](O)C/C1=C/C=C1\CCC[C@]2(C)[C@@H]([C@H](C)CCCC(C)C)CC[C@@H]12 [Standard vitamin D3, cholecalciferol]
2910

====

# test: in vivo
# particulars: Wistar, rat, po, 5 mg/kg
property measured: concentration at 0.5 h (ng/mL)
Kindly provide the numeric value in ng/mL only, without the unit symbol.

Requested read-out: concentration at 0.5 h. Entry: C=C1CC[C@H](O)C/C1=C/C=C1\CCC[C@]2(C)[C@@H]([C@H](C)CCCC(C)C)CC[C@@H]12
4.16

====

# test: in vivo
# particulars: Wistar, rat, po, 5 mg/kg
# Procedure: Test substance (Vitamin D3 fortified aqueous composition) and standard drug cholecalciferol (Vitamin D3) was administered by oral route at the dose of 5 mg/kg body weight to Rats as shown in Table 8. […] The plasma was separated from blood samples for bioanalysis and pharmacokinetic profiling was performed using LC-MS/MS method for the quantification of vitamin D3 in Rat plasma. […]
property measured: AUC at 4 h (ng·h/mL)
Kindly provide the numeric value in ng·h/mL only, without the unit symbol.

Requested read-out: AUC at 4 h. Entry: C=C1CC[C@H](O)C/C1=C/C=C1\CCC[C@]2(C)[C@@H]([C@H](C)CCCC(C)C)CC[C@@H]12 [Standard vitamin D3, cholecalciferol]
289

====

# test: in vivo
# particulars: Wistar, rat, po, 5 mg/kg
property measured: AUC at 8 h (ng·h/mL)
Kindly provide the numeric value in ng·h/mL only, without the unit symbol.

Requested read-out: AUC at 8 h. Entry: C=C1CC[C@H](O)C/C1=C/C=C1\CCC[C@]2(C)[C@@H]([C@H](C)CCCC(C)C)CC[C@@H]12
1180

====

# test: in vivo
# particulars: Wistar, rat, po, 5 mg/kg
property measured: AUC at 0.5 h (ng·h/mL)
Kindly provide the numeric value in ng·h/mL only, without the unit symbol.

Requested read-out: AUC at 0.5 h. Entry: C=C1CC[C@H](O)C/C1=C/C=C1\CCC[C@]2(C)[C@@H]([C@H](C)CCCC(C)C)CC[C@@H]12 [Standard vitamin D3, cholecalciferol]
43.3

====

# test: in vivo
# particulars: Wistar, rat, po, 5 mg/kg
property measured: AUC at 1 h (µg·h/mL)
Kindly provide the numeric value in µg·h/mL only, without the unit symbol.

Requested read-out: AUC at 1 h. Entry: C=C1CC[C@H](O)C/C1=C/C=C1\CCC[C@]2(C)[C@@H]([C@H](C)CCCC(C)C)CC[C@@H]12 [Standard vitamin D3, cholecalciferol]
0.0417

====

# test: in vivo
# particulars: Wistar, rat, po, 5 mg/kg
property measured: AUC at 0 h
The reply should consist of the numeric value with the unit placed after it.

Requested read-out: AUC at 0 h. Entry: C=C1CC[C@H](O)C/C1=C/C=C1\CCC[C@]2(C)[C@@H]([C@H](C)CCCC(C)C)CC[C@@H]12
20 ng·h/mL

====

# test: in vivo
# particulars: Wistar, rat, po, 5 mg/kg
property measured: concentration at 0 h

Requested read-out: concentration at 0 h. Entry: C=C1CC[C@H](O)C/C1=C/C=C1\CCC[C@]2(C)[C@@H]([C@H](C)CCCC(C)C)CC[C@@H]12
1.66 ng/mL

====

# test: in vivo
# particulars: Wistar, rat, po, 5 mg/kg
property measured: AUC at 12 h
The reply should consist of the numeric value with the unit placed after it.

Requested read-out: AUC at 12 h. Entry: C=C1CC[C@H](O)C/C1=C/C=C1\CCC[C@]2(C)[C@@H]([C@H](C)CCCC(C)C)CC[C@@H]12 [Standard vitamin D3, cholecalciferol]
3010 ng·h/mL

====

# test: in vivo
# particulars: Wistar, rat, po, 5 mg/kg
property measured: AUC at 24 h (ng·h/mL)
Kindly provide the numeric value in ng·h/mL only, without the unit symbol.

Requested read-out: AUC at 24 h. Entry: C=C1CC[C@H](O)C/C1=C/C=C1\CCC[C@]2(C)[C@@H]([C@H](C)CCCC(C)C)CC[C@@H]12
4060
